- Tgt: Serine/threonine-protein kinase PAK 5 (Homo sapiens)
- Experimental context: at 1 µM
- Description: GSK_PKIS: PAK5 mean inhibition at 1 uM [Nanosyn]
Measurement label: inhibition (%)
Value expressed in %; do not type the unit.

Task: What does the record list as inhibition for "C[C@@H](Oc1cc(-n2cnc3ccc(OC[C@@H](O)CO)cc32)sc1C(N)=O)c1ccccc1Cl" ?
Result: -4.24

Task: # inhibition lookup, item "NS(=O)(=O)c1ccc(-c2cc3ccncc3cc2OCc2ccccc2)cc1"
Result: -3.7

Task: Request the reported inhibition associated with "COc1cc2ncnc(Nc3ccc(C)c(O)c3)c2cc1OC"
Result: 7.08

Task: What value of measured inhibition is listed for "Nc1nccc(C#Cc2cncnc2Nc2ccc(OCc3cccc(F)c3)c(Cl)c2)n1" ?
Result: -3.56

Task: Item "CC(C)c1ccc2c(c1)NC(=O)/C2=N/Nc1ccc(S(N)(=O)=O)cc1" has what recorded inhibition?
Result: -0.94

Task: Need inhibition, item "COc1ccc(-c2nn3ncccc3c2-c2ccnc(Nc3cccc(C(F)(F)F)c3)n2)cc1"
Result: 1.57

Task: Look up inhibition: "Cc1ccc2c(-c3ccnc(Nc4ccc5c(c4)OCCO5)n3)c(-c3ccc(C(F)(F)F)cc3)nn2n1"
Result: -4.92

Task: Fill blank: measured inhibition of the compound "COC(=O)c1ccc2c(c1)C(=Cc1cc(Br)c(O)c(Br)c1)C(=O)N2" is ____.
Result: 10.8

Task: Item under review: "COc1ccc2ncnc(Nc3ccc(OCc4ccccc4)cc3)c2c1" . Reported inhibition?
Result: -2.45

Task: Form field: reported inhibition of "NS(=O)(=O)c1ccc(Nc2cc(-c3cccc(O)c3)n[nH]2)cc1"
Result: -6.9

Task: Item under review: "NS(=O)(=O)c1ccc(N/N=C2\C(=O)Nc3ccc(Cl)cc32)cc1" . Reported inhibition?
Result: 3.28

Task: Look at this compound and give its reported inhibition. "NS(=O)(=O)c1cccc(-c2cc3ccncc3cc2OCc2ccccc2)c1"
Result: -0.51

Task: Query (compound): "COC(=O)Nc1nc2cc(Oc3ccc(NC(=O)Nc4cccc(Br)c4)cc3)ccc2[nH]1" ; field requested: inhibition
Result: -0.7

Task: Look up inhibition: "CC(C)c1ccc(Nc2nccc(-c3cnn4ncccc34)n2)cc1"
Result: 2.48

Task: Return reported inhibition; argument: "Cc1nc(-c2ccccc2)n2nc(NCCCN3CCOCC3)ncc12"
Result: 1.28

Task: Need inhibition, item CCCN1CCCC(c2ccc(Nc3nc(Nc4cc(F)ccc4C(N)=O)c4cc[nH]c4n3)c(OC)c2)C1 (configuration not stated)
Result: 6.67

Task: Fill in the blank: the reported inhibition of "NC(=O)c1cccc(Nc2nccc(Nc3cccc(F)c3)n2)c1" is ____.
Result: 1.21

Task: Name the recorded inhibition for "Nc1nccc(-c2c(-c3ccc(F)cc3)ncn2CCCN2CCOCC2)n1" .
Result: 3.01

Task: Give its inhibition value. Item: "NC(=O)c1sc(-n2cnc3ccccc32)cc1OCc1ccccc1Br"
Result: 5.06

Task: What does the record list as inhibition for "O=C1Nc2ccccc2/C1=C/Nc1ccc2[nH]c(=O)[nH]c2c1" ?
Result: 3.2

Task: Could you share which inhibition value was measured for "Cc1cc(O)cc(C)c1/C=C/c1cncc(C(=O)N(C)C)c1" ?
Result: 6.26

Task: Returns the measured inhibition for the input compound. Input: "CS(=O)(=O)CCNCc1nc(-c2ccc3ncnc(Nc4ccc(OCc5cccc(C(F)(F)F)c5)cc4)c3c2)cs1"
Result: 1.26

Task: Reported inhibition for "CCS(=O)(=O)c1ccc(OC)c(Nc2ncc(-c3cccc(OC)c3)o2)c1" : what is it?
Result: -1.57

Task: Item "COc1cc(/C=N/Nc2ncnc3c2cnn3C(C)C)ccc1O" has what recorded inhibition?
Result: 4.69

Task: What value of inhibition has been reported for the following compound? "Cc1ccc2c(-c3ccnc(Nc4cccc(C(F)(F)F)c4)n3)c(-c3ccccc3)nn2n1"
Result: -7

Task: Please look up its inhibition: "CN(c1ccc(NC(=O)Nc2ccc(OC(F)(F)F)cc2)cc1)c1ccnc(Nc2cccc(S(N)(=O)=O)c2)n1"
Result: 1.16

Task: For "COC(=O)c1cncc(/C=C/c2c(C)cc(O)cc2C)c1" , what is its reported inhibition?
Result: 2.77

Task: Param item = "Cc1ccc(NC(=O)CC2CC2)cc1-c1ccc(C(=O)NCC2CC2)cc1" ; retrieve measured inhibition.
Result: 5.74

Task: Look up inhibition: "CN(C)C(=O)O[C@H]1CN[C@H](C#Cc2cc3ncnc(Nc4ccc(OCc5cccc(F)c5)c(Cl)c4)c3s2)C1"
Result: 1.82

Task: Fill in the blank: the reported inhibition of "NS(=O)(=O)c1cccc(Nc2cc(-c3ccc(F)cc3)n[nH]2)c1" is ____.
Result: 11.7

Task: Using the record for "CCn1c(-c2nonc2N)nc2c(C#CC(C)(C)O)nc(OCCNC)cc21" , report its inhibition.
Result: 12.5

Task: Item under review: "COc1cc2ncnc(Nc3ccc4c(cnn4Cc4ccccc4)c3)c2cc1OC" . Reported inhibition?
Result: 2.16
